Where do the numbers come from? From the supplement of paper PMC9013687.

Tested on: Danio rerio embryo
assayExplanation: EC20 Head size_Decrease; higher = less potent
particulars: exposure time: 4 dpf
I'd be grateful if you could share measured EC20 Head size Decrease for these entries.
Give bare numbers, in µM.

Provide each entry's EC20 Head size Decrease from the list below.
1. CCOC(=O)N1CCC(=C2c3ccc(Cl)cc3CCc3cccnc32)CC1
2. O=C(O)CCc1nc(-c2ccccc2)c(-c2ccccc2)o1
3. CCCNCC(O)COc1ccccc1C(=O)CCc1ccccc1 (centres undefined)
4. COc1cccc2c1C(=O)c1c(O)c3c(c(O)c1C2=O)C[C@@](O)(C(C)=O)C[C@@H]3O[C@H]1C[C@H](N)[C@H](O)[C@H](C)O1

[8.95, 19.7, 18.3, 19.7]

* * *

System: Danio rerio embryo
assayExplanation: EC10 Lack of SB; higher = less potent
particulars: exposure time: 4 dpf
reportedMetric: EC10 Lack of SB (µM)
Numbers only, in µM.

[
  {
    "molecule": "CCCNCC(O)COc1ccccc1C(=O)CCc1ccccc1 (stereo not given) [Propafenone]",
    "studyTarget": "Danio rerio embryo",
    "unitAbbreviation": "µM",
    "EC10 Lack of SB": 6.08
  },
  {
    "molecule": "COC(=O)Nc1nc2ccccc2[nH]1 [Carbendazim]",
    "studyTarget": "Danio rerio embryo",
    "unitAbbreviation": "µM",
    "EC10 Lack of SB": 2.3
  },
  {
    "molecule": "CCO/N=C(\\CC)C1=C(O)CC(c2c(C)cc(C)cc2C)CC1=O (stereo not given) [Tralkoxydim]",
    "studyTarget": "Danio rerio embryo",
    "unitAbbreviation": "µM",
    "EC10 Lack of SB": 45.3
  },
  {
    "molecule": "CC(=O)OCC(=O)[C@@]1(OC(C)=O)[C@@H](C)C[C@H]2[C@@H]3C[C@H](F)C4=CC(=O)C=C[C@]4(C)[C@@]3(F)[C@@H](O)C[C@@]21C [diflorasone diacetate]",
    "studyTarget": "Danio rerio embryo",
    "unitAbbreviation": "µM",
    "EC10 Lack of SB": 0.045
  },
  {
    "molecule": "COC(=O)Nc1nc2cc(Sc3ccccc3)ccc2[nH]1 [Fenbendazole]",
    "studyTarget": "Danio rerio embryo",
    "unitAbbreviation": "µM",
    "EC10 Lack of SB": 0.046
  }
]

Count: 4. Required value per item: EC10 Lack of SB.
1. CC(=O)Nc1ccc(O)cc1 [Acetaminophen]
2. CC(C)(C)C(O)C(Oc1ccc(Cl)cc1)n1cncn1 (stereo not given) [Triadimenol]
3. CC1(C)O[C@@H]2[C@@H](CO[C@@]3(COS(N)(=O)=O)OC(C)(C)O[C@@H]23)O1 [Topiramate]
4. CSc1nc2cc(Cl)c(Oc3cccc(Cl)c3Cl)cc2[nH]1 [Triclabendazole]

[1080, 19.6, 29.7, 0.462]

Any idea what its EC10 Lack of SB is? The molecule is CCOC(=O)N1CCC(=C2c3ccc(Cl)cc3CCc3cccnc32)CC1 [Loratadine]
0.167

* * *

Tested on: Danio rerio embryo
assayExplanation: EC10 Pigmentation decrease; higher = less potent
particulars: exposure time: 4 dpf
Exercise: state measured EC10 Pigmentation decrease for each of the compounds provided.
Numbers only, in µM.

# batch: return EC10 Pigmentation decrease for each of the 4 compounds below
1. CCC(=O)OCC(=O)[C@@]1(OC(=O)CC)[C@@H](C)C[C@H]2[C@@H]3CCC4=CC(=O)C=C[C@]4(C)[C@@]3(F)[C@@H](O)C[C@@]21C [betamethasone dipropionate]
2. CCOC(=O)N1CCC(=C2c3ccc(Cl)cc3CCc3cccnc32)CC1 [Loratadine]
3. C[Si](Cn1cncn1)(c1ccc(F)cc1)c1ccc(F)cc1 [Flusilazole]
4. CC(=O)Nc1ccc(O)cc1 [Acetaminophen]

[1.61, 8.11, 3.38, 2380]
